Tested on: M14 melanoma
Assay: NCI tumour cell line growth inhibition, 48 h
METRIC: TGI

INSERT INTO results (molecule, assay_value) VALUES
  ('CN(C)CCN1C(=O)c2cccc3cc([N+](=O)[O-])cc(c23)C1=O', '2.14 µM'),
  ('CC(=O)Nc1ccc2nc(-c3ccccn3)c(-c3ccccn3)nc2c1', '> 100 µM'),
  ('CC/C=C\C[C@H](F)C/C=C1/C(=O)C=C[C@@H]1C/C=C\CCCC(=O)OC', '5.8 µM');

I would be grateful if you could provide TGI for each of the following entries.
1. CCCNC(=S)N/N=C(\C)c1ccc(S(=O)(=O)N(C)c2ccccc2)cc1
2. COc1cc2c(c(OC)c1OC)C(=O)[C@@H]1[C@H]2N1C(=O)NCCCl
3. S=C1NC2=C(COc3ccccc32)C(c2ccc(Cl)cc2)N1 (stereo unspecified)
4. CC(Oc1ccccc1Cl)C(=O)NN1C(=O)CC(=O)N(c2ccccc2)C1=S (stereo unspecified)
5. CN1CN(C2OC(CO)C(O)C2O)c2nc(N)[nH]c(=O)c21 (stereo unspecified)

Response:
["> 87.4 µM", "> 100 µM", "34.5 µM", "> 100 µM", "> 100 µM"]

I would be grateful if you could provide TGI for each of the following entries.
1. Cc1ccc(-c2nc3ccccc3c(=O)n2NCC2(O)OCC(O)C(O)C2O)cc1 (stereo unspecified)
2. COc1ccc(OC)c(NCC(=O)Nn2cnc3ccc(S(=O)(=O)Nc4cc(OC)ccc4OC)cc3c2=O)c1
3. O=C(Nc1ccc(Cc2ccccc2)cc1)Nc1nn(C(=O)Nc2ccc(Cc3ccccc3)cc2)c2ccccc12

Response:
1: > 100 µM; 2: > 100 µM; 3: > 100 µM

* * *

Would you mind telling me the reported TGI of each entry?
Test system: MCF7 breast
Assay: NCI tumour cell line growth inhibition, 48 h

I would be grateful if you could provide TGI for each of the following entries.
1. O=C(CC1(O)C(=O)N(Cc2ccccc2)c2ccc(Cl)cc21)c1ccc(C(=O)NCC2CCC3(CC2)OOC2(CCCCC2)OO3)cc1 (stereo unspecified)
2. O=c1[nH]nc(NCc2ccccc2)c2nnn(Cc3ccccc3)c12
3. O=C1CSC(=S)N1c1ccco1
4. CC1(C)S[C@@H]2[C@H](N3C(=O)c4ccccc4C3=O)CN2[C@H]1NC(=O)N[C@@H]1N2C[C@@H](N3C(=O)c4ccccc4C3=O)[C@H]2SC1(C)C

Response:
["66.2 µM", "> 100 µM", "> 100 µM", "> 100 µM"]

I would be grateful if you could provide TGI for each of the following entries.
1. COc1cccc(/C=C/C(=O)c2ccc(SC)cc2)c1OC
2. CN(CCCCCl)P(=O)(OCCS(=O)(=O)CC(NC(=O)CCC(N)C(=O)O)C(=O)NC(C(=O)O)c1ccccc1)OCC1OC(n2ccc(N)nc2=O)C(O)C1O (stereo unspecified)
3. Cc1c(O)c(N=Nc2nc3ccccc3s2)c2ccccc2c1O
4. Nc1ccc2[nH]c(-c3cccc(C(F)(F)F)c3)cc(=O)c2c1

Response:
35.8 µM
> 75 µM
> 50 µM
> 100 µM

I would be grateful if you could provide TGI for each of the following entries.
1. CCCCN1CCCC[C@@H]1C(=O)N[C@H](C(=O)N(C)[C@H](C[C@@H](OC(C)=O)c1nc(C(=O)NC2CCC(C(=O)OC)CC2)cs1)C(C)C)C(C)C (stereo partly specified)
2. COc1cc(C2CC(c3cccc(Nc4ccnc5cc(Cl)ccc45)c3)=NN2c2ccc(Cl)cc2)cc(OC)c1OC (stereo unspecified)
3. CCOC(=O)c1nc2ccc(C(F)(F)F)cc2nc1Nc1cc(OC)c(OC)c(OC)c1
4. CCOC(=O)C(NC(=O)c1ccccc1)(Nc1ccc(S(=O)(=O)Nc2ncccn2)cc1)C(F)(F)F (stereo unspecified)
5. COc1cc2c(c(OC)c1OC)-c1ccc(O)cc1[C@@H](NC(C)=O)CC2
6. COc1ccc(/C(C)=N/NC(=O)c2ccncc2)c(OC)c1
7. NC(N)=NCC1CCCCCCN1 (stereo unspecified)
8. COC(=O)/C=C\C(C#N)(C#N)N=Cc1cccc(OC)c1

Response:
1: > 25 µM; 2: > 100 µM; 3: > 100 µM; 4: > 100 µM; 5: > 100 µM; 6: > 10 µM; 7: > 100 µM; 8: 38.9 µM

I would be grateful if you could provide TGI for each of the following entries.
1. Cc1ccc(C2(c3ccc(Cl)cc3)c3ccccc3C3=NCCN32)cc1 (stereo unspecified)
2. Cc1c(C)c(C)c(Cn2[nH]c(=O)n(C)c2=O)c(C)c1C

Response:
1. 20.5 µM
2. > 100 µM

I would be grateful if you could provide TGI for each of the following entries.
1. S=C1NC2=C(COc3ccccc32)C(c2ccc(Cl)cc2)N1 (stereo unspecified)
2. COc1cc(C(=O)O[C@H](C(=O)NCCCNC(=O)[C@@H](OC(=O)c2cc(OC)cc3c(C)cccc23)[C@]2(C)CO2)[C@]2(C)CO2)c2cccc(C)c2c1
3. OCC1COc2cc(Cl)c(Cl)cc2O1 (stereo unspecified)

Response:
1. 38.4 µM
2. 0.219 µM
3. > 10 µM
